target: vitamin D receptor (VDR) (Homo sapiens); construct: full-length; test: fluorescence polarization competition with Fluormone VDR Red tracer (PolarScreen); binding only evident above […]
Quantity Name: pIC50
Quick note: pIC50 values are minus log10 of concentrations in mol/L.

Value of measured pIC50 for the entry C=C1/C(=C\C=C2/CCC[C@]3(C)[C@@H]([C@H](C)CCC(=NOC)C(C)(C)C)CC[C@@H]23)C[C@@H](O)C[C@@H]1O : 6.36

###

biological target: vitamin D receptor (VDR) (Homo sapiens, UniProt P11473); construct: full-length; assay: fluorescence polarization competition with Fluormone VDR Red tracer (PolarScreen); assay type: binding
Sequence (P11473 whole entry): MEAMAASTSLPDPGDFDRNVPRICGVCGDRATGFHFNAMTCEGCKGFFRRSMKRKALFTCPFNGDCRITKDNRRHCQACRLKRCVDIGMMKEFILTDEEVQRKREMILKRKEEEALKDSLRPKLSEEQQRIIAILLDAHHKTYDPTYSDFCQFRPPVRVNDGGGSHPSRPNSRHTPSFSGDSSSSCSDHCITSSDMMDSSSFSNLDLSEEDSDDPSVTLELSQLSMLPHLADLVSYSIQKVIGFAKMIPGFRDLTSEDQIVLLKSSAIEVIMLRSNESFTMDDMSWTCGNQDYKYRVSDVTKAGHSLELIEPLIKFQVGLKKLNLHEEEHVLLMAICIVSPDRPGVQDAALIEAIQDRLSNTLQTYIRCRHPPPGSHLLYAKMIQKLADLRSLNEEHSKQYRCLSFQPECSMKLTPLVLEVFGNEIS
Quantity Name: pIC50
Quick note: pIC50 values are minus log10 of concentrations in mol/L.

Value of measured pIC50 for the entry C=C1CC[C@H](O)C/C1=C/C=C1\CCC[C@]2(C)[C@@H]([C@H](C)CCCC(C)(C)O)CC[C@@H]12 : 7.25
